# Tested on: MCF7
# ASSAY NAME: Cytotoxicity against Homo sapiens (human) MCF7 cells after 48 hr by SRB assay
# Format: functional, cell-based
# DETAILS: MCF7, 48 h
PROPERTY LABEL: log10 of IC50 (log10 of the value in µg/mL)
Annotation: log10 of IC50, µg/mL basis.

The observed log10 of IC50 for `O=S1(=O)N=C(Nc2cccc(NC3=NS(=O)(=O)c4ccccc43)c2)c2ccccc21` when tested with MCF7 stands at 0.50

The observed log10 of IC50 for `c1ccc2c(NCCNc3ncnc4ccccc34)ncnc2c1` when tested with MCF7 stands at 0.31

The observed log10 of IC50 for `NS(=O)(=O)c1ccc(Nc2ncnc3ccccc23)cc1` when tested with MCF7 stands at 0.38

The observed log10 of IC50 for `NS(=O)(=O)c1ccc(NNc2ncnc3ccccc23)cc1` when tested with MCF7 stands at 0.05

The observed log10 of IC50 for `O=C(NS(=O)(=O)c1ccc(Cl)cc1)N1C(=O)c2ccccc2S1(=O)=O` when tested with MCF7 stands at 0.78

The observed log10 of IC50 for `Cc1ccc(S(=O)(=O)NC(=O)n2cnc3ccccc3c2=O)cc1` when tested with MCF7 stands at 0.60

The observed log10 of IC50 for `O=S1(=O)N=C(NCCNC2=NS(=O)(=O)c3ccccc32)c2ccccc21` when tested with MCF7 stands at 0.57

The observed log10 of IC50 for `O=S1(=O)N=C(Nc2nnc(-c3ccc(Cl)cc3)s2)c2ccccc21` when tested with MCF7 stands at 0.47

The observed log10 of IC50 for `c1ccc2c(Nc3ccc(Nc4ncnc5ccccc45)cc3)ncnc2c1` when tested with MCF7 stands at -1.22

The observed log10 of IC50 for `NS(=O)(=O)c1ccc(NNC2=NS(=O)(=O)c3ccccc32)cc1` when tested with MCF7 stands at 0.57

The observed log10 of IC50 for `Cc1ccc(S(=O)(=O)NC(=O)N2C(=O)c3ccccc3S2(=O)=O)cc1` when tested with MCF7 stands at 0.75

* * *

Kindly supply the reported IC50 values for the records listed here.
# System: MCF7
# ASSAY NAME: Cytotoxicity against Homo sapiens (human) MCF7 cells after 48 hr by SRB assay
# Assay type: functional, cell-based
# DETAILS: MCF7, 48 h
Answer with a number only, understood to be in µg/mL.

IC50 reported for this molecule `c1cc(Nc2ncnc3ccccc23)cc(Nc2ncnc3ccccc23)c1` : 2.04

IC50 reported for this molecule `N=C(N)NS(=O)(=O)c1ccc(NNc2ncnc3ccccc23)cc1` : 1.65

IC50 reported for this molecule `c1ccc(-c2nnc(Nc3ncnc4ccccc34)s2)cc1` : 3.61

IC50 reported for this molecule `O=C(NS(=O)(=O)c1ccc(Cl)cc1)n1cnc2ccccc2c1=O` : 3.74

IC50 reported for this molecule `N=C(N)NS(=O)(=O)c1ccc(Nc2ncnc3ccccc23)cc1` : 1.85

IC50 reported for this molecule `N=C(N)NS(=O)(=O)c1ccc(NC2=NS(=O)(=O)c3ccccc32)cc1` : 4.3

IC50 reported for this molecule `O=S1(=O)N=C(Nc2nnc(-c3ccccc3)s2)c2ccccc21` : 2.92

IC50 reported for this molecule `N=C(N)NS(=O)(=O)c1ccc(NNC2=NS(=O)(=O)c3ccccc32)cc1` : 4.35

IC50 reported for this molecule `O=S1(=O)N=C(Nc2ccc(NC3=NS(=O)(=O)c4ccccc43)cc2)c2ccccc21` : 2.76

IC50 reported for this molecule `NS(=O)(=O)c1ccc(NC2=NS(=O)(=O)c3ccccc32)cc1` : 4.17

IC50 reported for this molecule `Clc1ccc(-c2nnc(Nc3ncnc4ccccc34)s2)cc1` : 2.04
